Measured Ki of individual entries
# assayed-target: human adenosine A2a receptor (Homo sapiens)
# Sequence (P29274 whole entry): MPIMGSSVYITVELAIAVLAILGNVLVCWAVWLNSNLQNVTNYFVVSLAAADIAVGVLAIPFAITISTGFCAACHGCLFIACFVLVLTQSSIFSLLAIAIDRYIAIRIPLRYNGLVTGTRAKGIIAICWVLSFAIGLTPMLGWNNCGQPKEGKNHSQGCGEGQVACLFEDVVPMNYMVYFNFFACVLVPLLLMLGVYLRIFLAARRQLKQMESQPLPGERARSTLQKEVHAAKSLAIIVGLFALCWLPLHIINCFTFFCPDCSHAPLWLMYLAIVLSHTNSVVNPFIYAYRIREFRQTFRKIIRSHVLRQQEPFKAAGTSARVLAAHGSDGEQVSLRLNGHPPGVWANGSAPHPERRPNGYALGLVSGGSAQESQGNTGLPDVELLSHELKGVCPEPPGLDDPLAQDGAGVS
# method-description: Adenosine A2a Receptor Functional Assay (A2AGAL2)
# condition-set: CHO-K1 cells, cAMP inducible beta-galactosidase reporter, 15 nM NECA agonist challenge
parameter-measured: Ki

[[record]]
compound = "Nc1nc(-c2cccs2)nc2sc(CN3CCCC3)cc12 [Example 30]"
assayed_target = "human adenosine A2a receptor (Homo sapiens)"
readout_value = "115 nM"

[[record]]
compound = "N#Cc1ccc(-c2nc(N)c3cc(CN4CCCCCC4)sc3n2)cc1 [Example 67]"
assayed_target = "human adenosine A2a receptor (Homo sapiens)"
readout_value = "384 nM"

[[record]]
compound = "Cc1ccc(-c2nc(N)c3cc(CN4CCCCC4)sc3n2)o1 [Example 34]"
assayed_target = "human adenosine A2a receptor (Homo sapiens)"
readout_value = "28.4 nM"

[[record]]
compound = "Nc1nc(-c2ccc[nH]2)nc2sc(CN3CCC(F)CC3)cc12 [Example 81]"
assayed_target = "human adenosine A2a receptor (Homo sapiens)"
readout_value = "795 nM"

[[record]]
compound = "C[C@@H]1CCC[C@H](C)N1Cc1cc2c(N)nc(-c3ccc(C(C)(C)C)s3)nc2s1 [Example 13]"
assayed_target = "human adenosine A2a receptor (Homo sapiens)"
readout_value = "> 2340 nM"


----------
# assayed-target: human A2a adenosine receptor (Homo sapiens)
# method-description: Ligand Binding Assay for Adenosine A2a Receptor (A2A-B)
# condition-set: HEK293 plasma membrane, radioligand [3H]CGS21680
Counter-ions that a name gives are not always drawn.
Measured log10(Ki) of individual entries
parameter-measured: log10(Ki) (log10 of the value in nM)

[[record]]
molecule = "Nc1nc(-c2ccc(Cl)o2)nc2sc(CN3CC=CC3)cc12 [Example 97]"
readout_value = -0.27

[[record]]
molecule = "N#Cc1cccc(-c2nc(N)c3cc(CN4CCCC4)sc3n2)c1 [Example 65]"
readout_value = 1.62

[[record]]
molecule = "Nc1nc(-c2ccco2)nc2sc(CNC3CCCCC3)cc12 [Example 32]"
readout_value = 2.15

[[record]]
molecule = "Nc1nc(-c2ccco2)nc2sc(CN3CC[C@@H](F)C3)cc12 [Example 54]"
readout_value = 0.91

[[record]]
molecule = "Nc1nc(-c2ccnc(Cl)c2)nc2sc(CN3CCOCC3)cc12 [Example 105]"
readout_value = 2.97

[[record]]
molecule = "N#Cc1cccc(-c2nc(N)c3cc(CN4CC=CCC4)sc3n2)c1 [Example 68]"
readout_value = 2.58

[[record]]
molecule = "Cc1ccc(-c2nc(N)c3cc(CN4CCOCC4)sc3n2)o1 [Example 38]"
readout_value = 1.51

[[record]]
molecule = "Nc1nc(C2CC2)nc2sc(CN3CC=CCC3)cc12 [Example 96]"
readout_value = 3.21

[[record]]
molecule = "Nc1nc(-c2ccc(Cl)o2)nc2sc(CN3CCCC3)cc12 [Example 90, hydrochloride]"
readout_value = 0.57

[[record]]
molecule = "Nc1nc(-c2ccco2)nc2sc(CN3CCC(O)CC3)cc12 [Example 52]"
readout_value = 2.34

[[record]]
molecule = "N#Cc1cccc(-c2nc(N)c3cc(CN4CCOCC4)sc3n2)c1 [Example 74]"
readout_value = 1.97

[[record]]
molecule = "Nc1nc(-c2ccco2)nc2sc(CN3CCOCC3)cc12 [Example 42]"
readout_value = 1.94

[[record]]
molecule = "Cc1ccc(-c2nc(N)c3cc(CN4CCCC4)sc3n2)o1 [Example 39]"
readout_value = 1.04

[[record]]
molecule = "COc1cccc(-c2nc(N)c3cc(CN4CCSCC4)sc3n2)c1 [Example 85]"
readout_value = 2.82

[[record]]
molecule = "N#Cc1ccc(-c2nc(N)c3cc(CN4CC=CC4)sc3n2)cc1 [Example 88]"
readout_value = 1.88

[[record]]
molecule = "Nc1nc(-c2ccc(Cl)o2)nc2sc(CN3CCC(F)CC3)cc12 [Example 89, hydrochloride]"
readout_value = 0.28

[[record]]
molecule = "COc1cccc(-c2nc(N)c3cc(CN4CC=CCC4)sc3n2)c1 [Example 80]"
readout_value = 2.26

[[record]]
molecule = "Nc1nc(-c2cccs2)nc2sc(CN3CCOCC3)cc12 [Example 26]"
readout_value = 2.32

[[record]]
molecule = "Nc1nc(-c2ccco2)nc2sc(CN3CC=CCC3)cc12 [Example 98]"
readout_value = 1.31

[[record]]
molecule = "COc1cccc(-c2nc(N)c3cc(CN4CCCC(F)(F)C4)sc3n2)c1 [Example 86]"
readout_value = 2.38


----------
# assayed-target: human adenosine A2a receptor (Homo sapiens)
# method-description: Adenosine A2a Receptor Functional Assay (A2AGAL2)
# condition-set: CHO-K1 cells, cAMP inducible beta-galactosidase reporter, 15 nM NECA agonist challenge
Structures can show the parent of a compound that is named as a salt.
Could you please classify the records by Ki using these ranges: Low: < 80 nM; Mid: ≥ 80 nM and < 300 nM; High: ≥ 300 nM

[[record]]
compound = "N#Cc1cccc(-c2nc(N)c3cc(CN4CC=CCC4)sc3n2)c1"
assayed_target = "human adenosine A2a receptor (Homo sapiens)"
label_class = "Low"

[[record]]
compound = "C[C@@H]1CN(Cc2cc3c(N)nc(-c4cccc(C#N)c4)nc3s2)C[C@H](C)O1"
assayed_target = "human adenosine A2a receptor (Homo sapiens)"
label_class = "Mid"

[[record]]
compound = "Nc1nc(-c2ccco2)nc2sc(CN3CCC(F)C3)cc12 (centres unmarked)"
assayed_target = "human adenosine A2a receptor (Homo sapiens)"
label_class = "Low"

[[record]]
compound = "COc1cccc(-c2nc(N)c3cc(CN4CC=CCC4)sc3n2)c1"
assayed_target = "human adenosine A2a receptor (Homo sapiens)"
label_class = "Mid"

[[record]]
compound = "Nc1nc(-c2cccc(Cl)c2)nc2sc(CN3CCC(F)CC3)cc12"
assayed_target = "human adenosine A2a receptor (Homo sapiens)"
label_class = "High"

[[record]]
compound = "Nc1nc(-c2ccc(C(F)F)o2)nc2sc(CN3CCC(F)(F)CC3)cc12"
assayed_target = "human adenosine A2a receptor (Homo sapiens)"
label_class = "High"

[[record]]
compound = "N#Cc1cccc(-c2nc(N)c3cc(CN4CC=CC4)sc3n2)c1"
assayed_target = "human adenosine A2a receptor (Homo sapiens)"
label_class = "Mid"

[[record]]
compound = "Nc1nc(-c2cc(F)cc(F)c2)nc2sc(CN3CCOCC3)cc12"
assayed_target = "human adenosine A2a receptor (Homo sapiens)"
label_class = "High"

[[record]]
compound = "Cn1cccc1-c1nc(N)c2cc(CN3CCC(F)CC3)sc2n1"
assayed_target = "human adenosine A2a receptor (Homo sapiens)"
label_class = "High"

[[record]]
compound = "C[C@@H]1CCC[C@H](C)N1Cc1cc2c(N)nc(-c3ccc(C(F)F)o3)nc2s1"
assayed_target = "human adenosine A2a receptor (Homo sapiens)"
label_class = "Low"

[[record]]
compound = "Nc1nc(-c2ccc(F)c(F)c2)nc2sc(CN3CCOCC3)cc12"
assayed_target = "human adenosine A2a receptor (Homo sapiens)"
label_class = "High"

[[record]]
compound = "Nc1nc(-c2ccc3c(c2)OCO3)nc2sc(CN3CCC(F)CC3)cc12"
assayed_target = "human adenosine A2a receptor (Homo sapiens)"
label_class = "Mid"

[[record]]
compound = "Nc1nc(-c2ccc(Cl)o2)nc2sc(CN3CCCC3)cc12 [Example 90, hydrochloride]"
assayed_target = "human adenosine A2a receptor (Homo sapiens)"
label_class = "Low"

[[record]]
compound = "Nc1nc(-c2ccco2)nc2sc(CN3CC[C@H](F)C3)cc12"
assayed_target = "human adenosine A2a receptor (Homo sapiens)"
label_class = "Low"

[[record]]
compound = "N#Cc1ccccc1-c1nc(N)c2cc(CN3CCC(F)CC3)sc2n1"
assayed_target = "human adenosine A2a receptor (Homo sapiens)"
label_class = "High"


----------
# assayed-target: human adenosine A1 receptor (Homo sapiens, UniProt P30542)
# Sequence (P30542 1-326): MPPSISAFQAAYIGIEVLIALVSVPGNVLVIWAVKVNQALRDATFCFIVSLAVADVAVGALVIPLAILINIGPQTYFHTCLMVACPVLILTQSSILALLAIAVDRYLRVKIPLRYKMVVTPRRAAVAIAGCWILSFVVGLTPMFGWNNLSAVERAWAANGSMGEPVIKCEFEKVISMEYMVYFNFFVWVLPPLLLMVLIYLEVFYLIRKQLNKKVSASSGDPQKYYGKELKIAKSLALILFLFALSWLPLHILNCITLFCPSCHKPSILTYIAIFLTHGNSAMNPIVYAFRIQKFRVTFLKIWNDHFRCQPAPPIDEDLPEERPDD
# method-description: Adenosine A1 Receptor Functional Assay (A1GAL2)
# condition-set: CHO-K1 cells, cAMP inducible beta-galactosidase reporter, 4 nM r-PIA/1 uM Forskolin challenge
Structures can show the parent of a compound that is named as a salt.
Measured log10 Ki of individual entries
parameter-measured: log10 Ki (log10 of the value in nM)

[[record]]
compound = "Nc1nc(-c2ccc(C(F)F)o2)nc2sc(CN3CCCC(F)(F)C3)cc12"
parameter_measured = "log10 Ki"
readout_value = 3.32

[[record]]
compound = "Nc1nc(-c2ccc(Cl)o2)nc2sc(CN3CCC(F)CC3)cc12 [Example 89, hydrochloride]"
parameter_measured = "log10 Ki"
readout_value = 3.03

[[record]]
compound = "N#Cc1cccc(-c2nc(N)c3cc(CN4CCSCC4)sc3n2)c1"
parameter_measured = "log10 Ki"
readout_value = 3.25

[[record]]
compound = "Cn1cccc1-c1nc(N)c2cc(CN3CCC(F)CC3)sc2n1"
parameter_measured = "log10 Ki"
readout_value = 3.20

[[record]]
compound = "COc1cccc(-c2nc(N)c3cc(CN4CC=CCC4)sc3n2)c1"
parameter_measured = "log10 Ki"
readout_value = 3.03

[[record]]
compound = "N#Cc1cccc(-c2nc(N)c3cc(CN4CC=CCC4)sc3n2)c1"
parameter_measured = "log10 Ki"
readout_value = 2.33

[[record]]
compound = "C[C@@H]1CCC[C@H](C)N1Cc1cc2c(N)nc(-c3ccc(C(F)F)o3)nc2s1"
parameter_measured = "log10 Ki"
readout_value = 2.86

[[record]]
compound = "Nc1nc(C2CC2)nc2sc(CN3CC=CCC3)cc12"
parameter_measured = "log10 Ki"
readout_value = 3.48

[[record]]
compound = "Nc1nc(-c2ccco2)nc2sc(CN3CCC(F)(F)CC3)cc12"
parameter_measured = "log10 Ki"
readout_value = 3.35

[[record]]
compound = "Nc1nc(-c2ccco2)nc2sc(CN3CC[C@H](F)C3)cc12"
parameter_measured = "log10 Ki"
readout_value = 2.82

[[record]]
compound = "CCc1ccc(-c2nc(N)c3cc(CN4[C@H](C)CCC[C@@H]4C)sc3n2)o1"
parameter_measured = "log10 Ki"
readout_value = 2.29

[[record]]
compound = "Nc1nc(-c2ccco2)nc2sc(CN3CC[C@@H](F)C3)cc12"
parameter_measured = "log10 Ki"
readout_value = 2.94

[[record]]
compound = "COc1cccc(-c2nc(N)c3cc(CN4CCSCC4)sc3n2)c1"
parameter_measured = "log10 Ki"
readout_value = 3.47

[[record]]
compound = "N#Cc1cccc(-c2nc(N)c3cc(CN4CCCC4c4ccccc4)sc3n2)c1 (stereo not shown)"
parameter_measured = "log10 Ki"
readout_value = 2.88

[[record]]
compound = "Nc1nc(-c2ccc(C(F)F)o2)nc2sc(CN3CCC(F)(F)CC3)cc12"
parameter_measured = "log10 Ki"
readout_value = 4.25

[[record]]
compound = "C[C@@H]1CCC[C@H](C)N1Cc1cc2c(N)nc(-c3cccc(C#N)c3)nc2s1"
parameter_measured = "log10 Ki"
readout_value = 2.67

[[record]]
compound = "Nc1nc(-c2cocn2)nc2sc(CN3CC=CC3)cc12"
parameter_measured = "log10 Ki"
readout_value = 3.59

[[record]]
compound = "Nc1nc(-c2ccc(Br)o2)nc2sc(CN3CCCC3)cc12"
parameter_measured = "log10 Ki"
readout_value = 2.90

[[record]]
compound = "Nc1nc(-c2ncco2)nc2sc(CN3CCOCC3)cc12"
parameter_measured = "log10 Ki"
readout_value = 3.51

[[record]]
compound = "N#Cc1cccc(-c2nc(N)c3cc(CN4C5CCC4CC5)sc3n2)c1"
parameter_measured = "log10 Ki"
readout_value = 3.34

[[record]]
compound = "Nc1nc(-c2ccco2)nc2sc(CN3CCCC3)cc12"
parameter_measured = "log10 Ki"
readout_value = 3.81

[[record]]
compound = "Cc1ccc(-c2nc(N)c3cc(CN4CCCC4)sc3n2)o1"
parameter_measured = "log10 Ki"
readout_value = 2.79

[[record]]
compound = "Cc1ccc(-c2nc(N)c3cc(CN4CCOCC4)sc3n2)o1"
parameter_measured = "log10 Ki"
readout_value = 3.02

[[record]]
compound = "Nc1nc(-c2ccco2)nc2sc(CN3CCC(O)CC3)cc12"
parameter_measured = "log10 Ki"
readout_value = 3.60

[[record]]
compound = "N#Cc1ccc(-c2nc(N)c3cc(CN4CC=CC4)sc3n2)cc1"
parameter_measured = "log10 Ki"
readout_value = 3.37

[[record]]
compound = "Nc1nc(-c2cc(F)cc(F)c2)nc2sc(CN3CCOCC3)cc12"
parameter_measured = "log10 Ki"
readout_value = 3.36

[[record]]
compound = "COc1cccc(-c2nc(N)c3cc(CN4CCCC(F)(F)C4)sc3n2)c1"
parameter_measured = "log10 Ki"
readout_value = 3.26

[[record]]
compound = "Nc1nc(-c2ccco2)nc2sc(CN3CCC(F)CC3)cc12 [Example 92, Hydrochloride]"
parameter_measured = "log10 Ki"
readout_value = 2.87


Data credit: patent US20100093702A1
